Cited source for all entries: ChEMBL document CHEMBL5154794

test system: HIV-1 protease; experiment: Selectivity index, ratio IC50 for cytotoxicity against human HEK-293T cells over IC50 for inhibition of HIV-1 protease; assay type: toxicity, cell-based; settings: read-out: Ratio CC50/IC50
Provide the recorded selectivity ratio for the entries that follow.

In: Answer with reported selectivity ratio of `CC(C)CN(C[C@@H](O)[C@H](Cc1ccccc1)NC(=O)OC[C@H]1CNCCO1)S(=O)(=O)c1ccc(NO)cc1`
Out: > 81600

In: Answer with the recorded selectivity ratio of `COc1ccc(S(=O)(=O)N(CC(C)C)C[C@@H](O)[C@H](Cc2ccccc2)NC(=O)CN2CCS(=O)(=O)CC2)cc1` only.
Out: > 8230

In: Item `CC(C)CN(C[C@@H](O)[C@H](Cc1ccccc1)NC(=O)OC[C@H]1CN(C)CCO1)S(=O)(=O)c1ccc(NO)cc1` : provide selectivity ratio
Out: > 14400

In: For the compound `COc1ccc(S(=O)(=O)N(CC(C)C)C[C@@H](O)[C@H](Cc2ccccc2)NC(=O)OC[C@H]2CN(C)CCO2)cc1` , give its measured selectivity ratio value.
Out: > 88900

In: Retrieve selectivity ratio measured for `CC(C)CN(C[C@@H](O)[C@H](Cc1ccccc1)NS(=O)(=O)N1CCOCC1)S(=O)(=O)c1ccc(N)cc1` and print it.
Out: 2860

In: Report selectivity ratio, nothing else, for this compound: `COc1ccc(S(=O)(=O)N(CC(C)C)C[C@@H](O)[C@H](Cc2ccccc2)NC(=O)[C@H]2CNCCO2)cc1`
Out: > 17200

In: Return selectivity ratio (reported value) for this compound: `CNc1ccc(S(=O)(=O)N(CC(C)C)C[C@@H](O)[C@H](Cc2ccccc2)NC(=O)[C@@H]2COCCN2)cc1`
Out: > 2090
